target: Cyclin-dependent kinase 4 (Homo sapiens, UniProt P11802)
Sequence (P11802 whole entry): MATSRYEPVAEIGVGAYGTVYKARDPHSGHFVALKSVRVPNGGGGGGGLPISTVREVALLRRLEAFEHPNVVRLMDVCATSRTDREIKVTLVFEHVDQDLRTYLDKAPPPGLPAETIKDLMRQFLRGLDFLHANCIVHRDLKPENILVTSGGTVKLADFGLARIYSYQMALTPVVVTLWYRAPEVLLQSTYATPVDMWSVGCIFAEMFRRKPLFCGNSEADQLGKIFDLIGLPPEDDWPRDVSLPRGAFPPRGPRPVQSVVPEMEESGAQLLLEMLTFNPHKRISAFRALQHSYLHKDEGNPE
assay remarks: Inhibition of CDK4
# key: entry, value: log10 of IC50
reported property: log10 of IC50 (log10 of the value in nM)

[[record]]
molecule = "COCCS(=O)(=O)c1ccc(Nc2nccc(-c3cnc(C)n3C(C)C)n2)cc1"
assay_value = 2.69

[[record]]
molecule = "Cc1ncc(-c2ccnc(Nc3ccc(S(=O)(=O)CCCN4CCOCC4)cc3)n2)n1C(C)C"
assay_value = 2.32

[[record]]
molecule = "Cc1ncc(-c2ccnc(Nc3ccc(S(=O)(=O)CCCN(C)C)cc3)n2)n1C(C)C"
assay_value = 2.15

[[record]]
molecule = "COCCNS(=O)(=O)c1ccc(Nc2nccc(-c3cnc(C)n3C)n2)cc1"
assay_value = 3.75

[[record]]
molecule = "CCn1c(-c2ccnc(Nc3ccc(S(=O)(=O)NCCOC)cc3)n2)cnc1C"
assay_value = 3.11

[[record]]
molecule = "COCCNS(=O)(=O)c1ccc(Nc2nccc(-c3cnc(C)n3C(C)C)n2)cc1"
assay_value = 2.30

[[record]]
molecule = "Cc1ncc(-c2ccnc(Nc3ccc(S(=O)(=O)Cc4ccccc4)cc3)n2)n1C(C)C"
assay_value = 3.18

[[record]]
molecule = "Cc1ncc(-c2ccnc(Nc3ccc(S(=O)(=O)CC4CCCO4)cc3)n2)n1C(C)C (centres undefined)"
assay_value = 2.72


* * *

Target or system UniProtKB P24941; recorded quantity pIC50.
pIC50: −log10 of the molar value.
reported property: pIC50

[[record]]
line_notation = "NS(=O)(=O)c1ccc(Nc2nccc(-c3cnc4ccccn34)n2)cc1"
target = "UniProtKB P24941"
reported_property = "pIC50"
censoring_qualifier = "="
assay_value = 8.70

[[record]]
line_notation = "Cc1ncc(-c2ccnc(Nc3ccc(S(=O)(=O)CCCN(C)C)cc3)n2)n1C(C)C"
target = "UniProtKB P24941"
reported_property = "pIC50"
censoring_qualifier = "="
assay_value = 7.44

[[record]]
line_notation = "COCCS(=O)(=O)c1ccc(Nc2nccc(-c3cnc(C)n3C(C)C)n2)cc1"
target = "UniProtKB P24941"
reported_property = "pIC50"
censoring_qualifier = "="
assay_value = 7.85

[[record]]
line_notation = "COCCNS(=O)(=O)c1ccc(Nc2nccc(-c3cnc(C)n3C)n2)cc1"
target = "UniProtKB P24941"
reported_property = "pIC50"
censoring_qualifier = "="
assay_value = 8.10

[[record]]
line_notation = "CNS(=O)(=O)c1ccc(Nc2nccc(-c3cnc4cccnn34)n2)cc1"
target = "UniProtKB P24941"
reported_property = "pIC50"
censoring_qualifier = ">"
assay_value = 8.52


* * *

assay remarks: Fraction unbound in rat serum
Type: ADME, cell-free
reported property: fraction unbound

[[record]]
line_notation = "COCCNS(=O)(=O)c1ccc(Nc2nccc(-c3cnc4cccnn34)n2)cc1"
assay_value = 0.008

[[record]]
line_notation = "NS(=O)(=O)c1ccc(Nc2nccc(-c3cnc4ccccn34)n2)cc1"
assay_value = 0.001

[[record]]
line_notation = "CCn1c(-c2ccnc(Nc3ccc(S(=O)(=O)NCCOC)cc3)n2)cnc1C"
assay_value = 0.014

[[record]]
line_notation = "CN(C)CCCNS(=O)(=O)c1ccc(Nc2nccc(-c3cnc4cccnn34)n2)cc1"
assay_value = 0.148

[[record]]
line_notation = "CN(C)CCNS(=O)(=O)c1ccc(Nc2nccc(-c3cnc4ccccn34)n2)cc1"
assay_value = 0.03

[[record]]
line_notation = "Cc1ncc(-c2ccnc(Nc3ccc(S(=O)(=O)CCCN(C)C)cc3)n2)n1C(C)C"
assay_value = 0.32

[[record]]
line_notation = "Cc1ncc(-c2ccnc(Nc3ccc(S(C)(=O)=O)cc3)n2)n1C(C)C"
assay_value = 0.087

